For each entry below, report its IC50 value.
target_of_assay: recombinant human DAO (diamine oxidase) (Homo sapiens, UniProt P19801)
Construct: purchased R&D systems
Sequence (P19801 20-751): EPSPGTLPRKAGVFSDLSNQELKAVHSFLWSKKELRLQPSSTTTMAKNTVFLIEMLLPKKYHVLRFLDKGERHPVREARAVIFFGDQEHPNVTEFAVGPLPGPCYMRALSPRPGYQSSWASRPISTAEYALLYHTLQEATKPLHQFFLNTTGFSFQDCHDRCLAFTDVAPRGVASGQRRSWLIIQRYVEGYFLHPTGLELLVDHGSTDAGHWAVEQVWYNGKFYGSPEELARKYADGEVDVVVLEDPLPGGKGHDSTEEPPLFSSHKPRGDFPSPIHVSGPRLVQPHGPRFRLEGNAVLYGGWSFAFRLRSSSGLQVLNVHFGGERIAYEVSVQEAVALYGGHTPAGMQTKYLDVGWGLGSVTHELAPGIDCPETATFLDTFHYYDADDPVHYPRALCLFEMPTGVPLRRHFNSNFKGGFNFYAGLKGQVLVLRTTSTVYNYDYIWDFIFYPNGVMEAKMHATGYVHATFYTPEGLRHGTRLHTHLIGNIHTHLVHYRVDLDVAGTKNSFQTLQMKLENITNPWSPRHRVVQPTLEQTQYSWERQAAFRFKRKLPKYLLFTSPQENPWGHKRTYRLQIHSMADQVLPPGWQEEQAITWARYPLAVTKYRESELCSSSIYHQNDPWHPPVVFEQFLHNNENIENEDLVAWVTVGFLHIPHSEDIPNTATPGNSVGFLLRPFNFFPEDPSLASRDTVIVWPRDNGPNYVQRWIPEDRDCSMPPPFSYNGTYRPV
method_summary: Activity on recombinant human DAO, Amplex Red method, 1 mM putrescine substrate
Assay type: biochemical
assay_setup: recombinant human DAO, 1 mM putrescine; * = between 10 and 100 nM, ** = between 300 and 1000 nM; read-out: Inhibitory Activity (IC50, nM) DAO
Where a name gives a salt, the structure may show the parent alone.

As a guide, the following entries are already answered.
CC(=O)Nc1nc2cc(-c3cc(C)c(-n4cnn(C/C(=C/F)CN)c4=O)cn3)ccc2s1 | < 100 nM
NC/C(=C\F)Cn1ncn(-c2cccc(-c3ccc(-c4ncon4)cc3)c2)c1=O | < 100 nM
Cc1cc(-n2cnn(C/C(=C/F)CN)c2=O)cnc1-c1cccc(-c2nc[nH]n2)c1 | < 100 nM
NC/C(=C\F)Cn1ncn(-c2cccc(-c3cnc(O)c(C(F)(F)F)c3)c2)c1=O [Example 88, hydrochloride] | < 10 nM
NC/C(=C\F)Cn1ncn(-c2cccc(-c3ccc4cn[nH]c4c3)c2)c1=O [Example 97, hydrochloride] | < 30 nM
Cc1cc(-c2ccc3cn[nH]c3c2)ncc1-n1cnn(C/C(=C/F)CN)c1=O | < 100 nM
NC/C(=C\F)Cn1ncn(-c2cccc(-c3ccc(N4CCOCC4)nc3)c2)c1=O [Example 86, hydrochloride] | < 100 nM
Cc1cc(-c2ccc(S(C)(=O)=O)cc2)ncc1-n1cnn(C/C(=C/F)CN)c1=O | < 100 nM

# return IC50 for each item in the list
1. NC/C(=C\F)Cn1ncn(-c2ccc(-c3ccc(-c4nnc[nH]4)cc3)cc2F)c1=O
2. CN(C)c1ccc(-c2cccc(-n3cnn(C/C(=C/F)CN)c3=O)c2)cc1 [Example 51, hydrochloride]
3. NC/C(=C/F)Cn1ncn(-c2cccc(-c3cccc(-c4nnc[nH]4)c3)c2)c1=O

1: < 100 nM; 2: > 10000 nM; 3: < 100 nM
